Ref: ChEMBL document CHEMBL1146975

# Test system: Jurkat
# measurement_protocol: Cytotoxicity against human Jurkat T cells
# Type: functional, cell-based
Reported EC50 values follow for various compounds
Your answer should be a number followed by the unit of measure.

Query block: Can you look up the measured EC50 of Cc1ccc(-c2ccc(CC3NC(=O)c4cc(Cl)ccc4N(C)C3=O)cc2)cc1 (stereo not given) for me?
Result block: 3.6 µM

Query block: Can you look up the measured EC50 of CN1C(=O)C(Cc2ccc(-c3ccoc3)cc2)NC(=O)c2cc(Cl)ccc21 (stereo not given) for me?
Result block: 0.3 µM

Query block: Can you look up the measured EC50 of CN1C(=O)C(Cc2ccc(-c3ccc([N+](=O)[O-])cc3)cc2)NC(=O)c2cc(Cl)ccc21 (stereo not given) for me?
Result block: 3.8 µM

Query block: Can you look up the measured EC50 of CN1C(=O)C(Cc2ccc(-c3cccc([N+](=O)[O-])c3)cc2)NC(=O)c2cc(Cl)ccc21 (stereo not given) for me?
Result block: 1.5 µM

Query block: Can you look up the measured EC50 of CN1C(=O)C(Cc2ccc(C(C)(C)C)cc2)NC(=O)c2cc(Cl)ccc21 (stereo not given) for me?
Result block: 8.2 µM

###

# System: Jurkat
# measurement_protocol: Cytotoxicity against human Jurkat T cells
# Format: functional, cell-based
Reported EC50 values follow for various compounds

{"compound": "CN1C(=O)C(Cc2ccc(-c3ccccc3[N+](=O)[O-])cc2)NC(=O)c2cc(Cl)ccc21 (centres undefined)", "EC50": "> 20 µM"}
{"compound": "CN1C(=O)C(Cc2ccc(-c3cccc(C(=O)O)c3)cc2)NC(=O)c2cc(Cl)ccc21 (centres undefined)", "EC50": "> 20 µM"}
{"compound": "CN1C(=O)C(Cc2ccccc2)NC(=O)c2cc(Cl)ccc21 (centres undefined)", "EC50": "> 80 µM"}

Pending compound:
Query block: Can you look up the measured EC50 of CN1C(=O)C(CCc2ccccc2)NC(=O)c2cc(Cl)ccc21 (centres undefined) for me?
Result block: > 80 µM
